Values compiled from ChEMBL document CHEMBL1201862.

So I've got a bunch of compounds here, and I need their GI50 values.
# Test system: CAKI-1
# method summary: NCI tumour cell line growth inhibition, 48 h
Active and inactive are the calls of the source. Cut-off read from the data, not from the text of the source: active = GI50 up to about 1.1 µM and inactive = higher.

| compound | recorded result |
| --- | --- |
| CC(C)(C)C1=CC(O)(c2c3ccccc3c(C3(O)C=C(C(C)(C)C)C(=O)C(C(C)(C)C)=C3)c3ccccc23)C=C(C(C)(C)C)C1=O | > 100 µM (inactive) |
| CN(C)CCNC(=O)c1cc([N+](=O)[O-])ccn1 | 34 µM (inactive) |
| COc1ccc(N2C(=O)C3c4[nH]c5ccc(OCc6ccccc6)cc5c4C4CCC(C(C)(C)C)CC4C3C2=O)cc1 (centres undefined) | > 100 µM (inactive) |
| O=C1c2ccc3c4ccc5c6c(ccc(c7ccc(c2c37)C(=O)N1CCN1CCCCC1)c64)C(=O)N(CCN1CCCCC1)C5=O | > 100 µM (inactive) |
| COC(=O)C1=C(C)NC2(C)OC(C)(O)C(C(C)=O)C12C(C)=O (centres undefined) | > 100 µM (inactive) |
| COc1ccc2c(c1)-c1c(c3ccccc3n1CCN1CCCCC1)CC2 | 21.6 µM (inactive) |
| Clc1ccc(/C=C/c2csnn2)cc1 | > 100 µM (inactive) |
| COc1ccc(C=O)cc1Oc1ccc(C[C@H]2c3c(cc(OC)c4c3Oc3cc5c(cc3O4)CCN(C)C5=O)CCN2C)cc1 | 18.7 µM (inactive) |

Now take the following compound into account.
Task: Can you share its GI50? I mean this compound: N#Cc1c(NC(=S)Nc2ccc(Cl)cc2)sc2c1CCN(N1CCc3c(sc(NC(=S)Nc4ccc(Cl)cc4)c3C#N)C1)C2
Output: 63.8 µM (inactive)

----------
# Tested on: NCI-H522
# method summary: NCI tumour cell line growth inhibition, 48 h
Calls of active or inactive are those of the source. Cut-off read from the data, not from the text of the source: active = GI50 up to about 1.1 µM and inactive = higher.
quantity measured: GI50

Illustrative cases are given below, each with its answer.
| compound | GI50 |
| --- | --- |
| COc1cc(C2C(C(=O)Nc3cc(F)c(F)cc3F)=C(C)NC(C)=C2C(=O)Nc2cc(F)c(F)cc2F)ccc1O | 13.3 µM (inactive) |
| O=C1CNC(=O)/C(=C/c2c[nH]c3ccccc23)N1 | 85.3 µM (inactive) |
| Cc1cccc2nc3cccc(C(=O)NCCC[N+](C)(CCCNC(=O)c4cccc5nc6cccc(C)c6nc45)Cc4ccc([N+](=O)[O-])n4C)c3nc12 | 4.13 µM (inactive) |

Now take the following compound into account.
Task: NCI-H522 / GI50 / O=C1CSC(c2ccccc2)N1c1ccc(-c2ccc(-n3c(-c4ccccc4)nc4ccccc4c3=O)cc2)cc1 (centres undefined) : value?
Output: 47.8 µM (inactive)

----------
# Tested on: CAKI-1
# method summary: NCI tumour cell line growth inhibition, 48 h
Active and inactive are the calls of the source. No stated cut-off is given here; in the data, active = GI50 up to about 1.1 µM and inactive = higher.
So I've got a bunch of compounds here, and I need their GI50 values.

| compound | recorded result |
| --- | --- |
| N#CCN1CCCN(CC#N)CCN(CC#N)CCCN(CC#N)CC1 | > 100 µM (inactive) |
| CCOP(=O)(OCC)/C(C#N)=C/c1cccn1Cc1ccccc1 | 42.2 µM (inactive) |
| COc1ccc(CCN2CCc3c(C)c(C#N)c4nc5ccccc5n4c32)cc1OC | > 100 µM (inactive) |
| O=C(Nc1ccccc1)OCCN=C1c2ccccc2CCc2ccccc21 | 18.5 µM (inactive) |

Task: Can you share its GI50? I mean this compound: CCN1CCC(O)(c2ccc(Oc3ccc(F)cc3)cc2)C(C(=O)c2ccc(Oc3ccc(F)cc3)cc2)C1 (stereo not given)
Output: 13 µM (inactive)

----------
# Test system: NCI-H226
# method summary: NCI tumour cell line growth inhibition, 48 h
Activity calls are given as the source filed them. Cut-off read from the data, not from the text of the source: active = GI50 up to about 1.1 µM and inactive = higher.
quantity measured: GI50

| compound | recorded result |
| --- | --- |
| CN1CCN(c2ncc3c(n2)sc2c(=O)n(-c4ccccc4)cnc23)CC1 | > 100 µM (inactive) |

Quick request: GI50 for each listed item, please.
1. N#Cc1c(-c2ccc(Cl)cc2)cc(-c2ccc(Nc3ccnc4cc(Cl)ccc34)cc2)[nH]c1=O
2. C/C(CC(=O)Nc1ccc(Cl)c(Cl)c1)=N/NC(=O)C[n+]1ccccc1
3. Cn1c2ccccc2c(=O)c2c(O)cc3c(c21)C=CC(C)(C)O3
4. Brc1ccc(C2CC(c3cccc4ccccc34)=Nc3ccccc3S2)cc1 (stereo not given)

Output:
> 100 µM (inactive)
> 100 µM (inactive)
> 25 µM (inactive)
> 100 µM (inactive)

----------
# Test system: IGROV-1
# method summary: NCI tumour cell line growth inhibition, 48 h
The source made the active and inactive calls. Rule as the data show it: active = GI50 up to about 1.1 µM and inactive = higher.
I would appreciate it if you answered using one of these outcomes: T (active), F (inactive)

Task: // return assay outcome for O=C(CNS(=O)(=O)Cc1ccccc1)NNc1ccccc1
Output: F

----------
# Test system: UACC-62
# method summary: NCI tumour cell line growth inhibition, 48 h
Activity calls are given as the source filed them. Cut-off read from the data, not from the text of the source: active = GI50 up to about 1.1 µM and inactive = higher.
So I've got a bunch of compounds here, and I need their GI50 values.

Illustrative cases are given below, each with its answer.
| compound | GI50 |
| --- | --- |
| O=C1/C(=C/c2ccc(Cl)cc2)NC(=S)N1CN1CCCCC1 | 13.1 µM (inactive) |
| c1ccc(CC(Nc2cccnc2)c2ccccc2)cc1 (stereo unspecified) | 16.6 µM (inactive) |
| Cc1ccc(C(=O)NC(C)(C)C)cc1/N=N/N(C)C | > 100 µM (inactive) |
| O=C(CCCCCCCCC(=O)NN1C(=O)/C(=C\c2ccc(O)c(O)c2)SC1c1c(O)ccc2ccccc12)NN1C(=O)C(=Cc2ccc(O)c(O)c2)SC1c1c(O)ccc2ccccc12 (stereo unspecified) | 4.74 µM (inactive) |
| C/C=C\C(CC(=O)NCCC1CN(C(=O)c2ccccc2)c2ccccc21)CC(=O)OC (stereo unspecified) | > 100 µM (inactive) |
| CC1(C)COC(C2(C)C(=O)C=C(c3ccccc3)c3ccccc32)=N1 (stereo unspecified) | 54.3 µM (inactive) |

Quick request: GI50 for each listed item, please.
1. Clc1ncc(C(Cl)(Cl)Cl)nc1-c1ccccc1
2. N#CC(/C(=N\NC(N)=S)C(=O)NC1C2CC3CC(C2)CC1C3)c1ccc(Cl)cc1 (stereo unspecified)
3. COc1cc(/C=N/c2nncs2)ccc1O
4. CC(=O)Oc1ccn2nc(C)c(Br)c2c1
5. CCC(=O)N1C(=O)OCC1C(C)C (stereo unspecified)

Output:
["2.56 µM (inactive)", "> 100 µM (inactive)", "> 100 µM (inactive)", "25.5 µM (inactive)", "> 100 µM (inactive)"]

----------
# Test system: U-251
# method summary: NCI tumour cell line growth inhibition, 48 h
Active and inactive are the calls of the source. Rule as the data show it: active = GI50 up to about 1.1 µM and inactive = higher.
quantity measured: GI50

Illustrative cases are given below, each with its answer.
| molecule | GI50 |
| --- | --- |
| CCN(CC)C1=Nc2ccccc2-n2c(C)cnc2C1 | > 100 µM (inactive) |
| CC1C(c2ccccc2)OP(=O)(OC(C#N)c2ccccc2)N1C (stereo unspecified) | 67.9 µM (inactive) |
| CC[N+]1(C)CCC(O)(/C=C/c2ccc(OC)cc2)C(C(=O)/C=C/c2ccc(OC)cc2)C1 (stereo unspecified) | 15.6 µM (inactive) |
| Cc1ccc(C)c(NC(=O)C(Cc2c[nH]c3ccccc23)NC(=O)OCc2ccccc2)c1 (stereo unspecified) | 17.1 µM (inactive) |
| Clc1ccc(/C=C/c2csnn2)cc1 | > 100 µM (inactive) |

Task: U-251 / GI50 / O=C(N/N=C\c1ccc(Cl)cc1)Nc1ccc2ccccc2c1 : value?
Output: 23.9 µM (inactive)

----------
# Tested on: UO-31
# method summary: NCI tumour cell line growth inhibition, 48 h
Active and inactive are the calls of the source. Rule as the data show it: active = GI50 up to about 1.1 µM and inactive = higher.
So I've got a bunch of molecules here, and I need their GI50 values.

Illustrative cases are given below, each with its answer.
| molecule | GI50 |
| --- | --- |
| CCCCC(C(=O)CCC(=O)Nc1ccc(Cl)cc1)C(=O)C(C)C (stereo not given) | > 100 µM (inactive) |
| COc1ccc(/C=[N+](\[O-])[C@H](COCc2ccccc2)c2ccccc2)cc1 | 17.3 µM (inactive) |
| c1cc(-c2ccc(-c3ccsc3)s2)cs1 | 28.1 µM (inactive) |
| O=C(Nc1ccccc1)OCCN=C1c2ccccc2CCc2ccccc21 | 17.3 µM (inactive) |
| Cc1ccc([S+]([O-])(=Nc2ccccc2)C(C(C)C)C(C)(C)Cl)cc1 (stereo not given) | 18.8 µM (inactive) |

Quick request: GI50 for each listed item, please.
1. C/C(=N\NC(N)=S)c1cccs1.OB(O)c1ccccc1
2. COc1ccc(C2SC(=N)Nc3c2c(C)nn3C(=O)c2ccncc2)cc1 (stereo not given)
3. Cc1ccc(NC(=O)CCc2nnc3s/c(=C\c4cccc([N+](=O)[O-])c4)c(=O)n23)cc1
4. CC(=O)Nc1ccc(C(=O)NN2C(=O)CSC2c2ccc([N+](=O)[O-])cc2)cc1 (stereo not given)
5. C/C(=N\NC(=S)NCc1ccccc1)c1nc2cccnc2[nH]1

Output:
1: 66.7 µM (inactive); 2: > 100 µM (inactive); 3: > 100 µM (inactive); 4: > 100 µM (inactive); 5: 1.94 µM (inactive)
